What self-cleavage was measured for each of the following?
B1: HDV Ribozyme (parent)
chain: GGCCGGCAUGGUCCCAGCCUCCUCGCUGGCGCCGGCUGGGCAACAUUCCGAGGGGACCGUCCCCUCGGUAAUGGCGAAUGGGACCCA

variants of: B1; assay: self-cleavage, relative activity (ratio to wild type); higher = more cleavage; co-transcriptional
Numbers only.

{"Construct sequence": "GGCCGGCAUGGUCCCAGCCUCCGCGCUGCCGCCGGCUGGGCAACAUUCCGAGGGGACCGUCCCCUCGGUAAUGGCGAAUGGGACCCA [U23G G29C]", "self-cleavage": 0.196}
{"Construct sequence": "GGCCGGCAUGGUGCCAGCCUCCUCGCUGGCGCCGGCUGGGCAGCAUUCCGAGGGGACCGUCCCCUCGGUAAUGGCGAAUGGGACCCA [C13G A43G]", "self-cleavage": 0.133}

State recorded self-cleavage for all listed variants.
1. GGCCGGCAUGGUCCCAGCCUCCUCGCUGGCGCCGGCUGGUCAACAUUCCGAGGGGAACGUCCCCUCGGUAAUGGCGAAUGGGACCCA [G40U C57A]
2. GGCCGGCAUGGUCCCAGCCUCCUCGCUGGCGCCGGCUGGGCAACAUUCCGAGGGGACCGUCCCCUCGGUAAUGGCUACUGGGACCCA [G76U A78C]
3. GGCCGGCAUGGUCCCAGCCUCCUCGCUGGCGCCGGCUGGGCAACAUUCCGAGGGGACCGUCCCCUCGGUAAUGGCGAACGGGACCCA [U79C]

1. 0.719
2. 0.219
3. 0.438

Please report self-cleavage for every entry that follows.
1. GGCCGGCAUGGUCCCAGUCUCCUCGCUGGCGCCGGCUGGGCAACAUUCCGAGGGGACCGUCCCCUCGGUAAUGGCGAAUGGGAUCCA [C18U C84U]
2. GGCCGGCAUGGUCCAAGCCUCCUCGCUGGCGCCAGCUGGGCAACAUUCCGAGGGGACCGUCCCCUCGGUAAUGGCGAAUGGGACCCA [C15A G34A]
3. GGCCGGCAUGGUCCCAGCCUCCUCGCUGGCGCCGGCUGGGCAGCAUUCCGAGGGGACCGACCCCUCGGUAAUGGCGAAUGGGACCCA [A43G U60A]
4. GGCCGGCAUGGUCCCAGCCUCCUCGCUGGCGCCGCCUGGGCAACAUUCCGAGGGGACCCUCCCCUCGGUAAUGGCGAAUGGGACCCA [G35C G59C]
5. GGCCGGCAUGGUCCCAGCCUCCUCGCUGGCGCGGGCUGGGCAACAUUCCGAGGGGACCAUCCCCUCGGUAAUGGCGAAUGGGACCCA [C33G G59A]
6. GGCCGGCAUGGUCCCAGCCUCCUCGCUGGCGCCGGCUGGGCAACAUUCCGAGGGGACUGUCCCCUCGGUAAUGGCAAAUGGGACCCA [C58U G76A]

[0.44, 0.0723, 0.594, 0.424, 0.188, 1.08]

The following variants each have a reported value; give each one's self-cleavage.
1. GGCCGGCAUGGUCCCAGCCUCCUCGCUGGCGCCGGCUGGGCAACAUUCCGAGGGUACCGUCCCCUCGGUUAUGGCGAAUGGGACCCA [G55U A70U]
2. GGCCGGCAUUGUCCCAGCCUCCUCGCUGGCGCCGGCUGGGCAACAUUCCGAGGGGACCGUCCCCUCGGUAAUGGCGAAUGGGACCUA [G10U C86U]
3. GGCCGGCAUGGUCCCAGCCUCCUCGCUGGCGCCGGCUGGGCAACAUUCCGAGGGGACCGCACCCUCGGUAAUGGCGAAUGGGACCCA [U60C C61A]
4. GGCCGGCAUGGUCCCAGCCUCCUCGCUGGCGCCGGCUGGGCAACAUUCCGAGGGGACCGUCCUCUCGGUAAUGGCGAAUGGCACCCA [C63U G82C]
5. GGCCGGCAUGGUCCCAGCCUCCUCGCUGGCGCCGGCUGGGAAACAUUCCGAGGGGACCGUCCCCUCGGUAAUGGCUAAUGGGACCCA [C41A G76U]
6. GGCCGGCAUGGUCCCAGCCUCCUCGCAGCCGCCGGCUGGGCAACAUUCCGAGGGGACCGUCCCCUCGGUAAUGGCGAAUGGGACCCA [U27A G29C]
7. GGCGGGCAUGGUCCCAGCCUCCUCGCUGGCGCCGGCUGGGCAACAUUCCGAGGGGACCGUCCCCUCGGUAAUGGCGAAUGGGACACA [C4G C85A]
8. GGCCGGCAUGGUCCCAGCCUCCUCGCUGGCGCCGGCUGGGCAACAUUCCGAGGGGACCGUCCCCUCGGUAAUGGCGAAUCGCACCCA [G80C G82C]

1: 1.02; 2: 0.867; 3: 0.831; 4: 0.192; 5: 1.02; 6: 0.158; 7: 0.435; 8: 0.166

# return self-cleavage for each item in the list
1. GGCCGGCAUGGUCCCAGCCUCCUCGCUGGCGCCGGCUGGGCAACAUUCCGAGGGGACCGUCCCCCCGGUAAUGGCGAAUGGGACACA [U65C C85A]
2. GGCCGGCAUGGUCCCAGCCUGCUCGCUGGCGCCGGCUGGGCAACAUUCCGAGGGGACCGUCCCGUCGGUAAUGGCGAAUGGGACCCA [C21G C64G]
3. GGCCGCCAUGGUCCCAGCCUCCUCGCUGCCGCCGGCUGGGCAACAUUCCGAGGGGACCGUCCCCUCGGUAAUGGCGAAUGGGACCCA [G6C G29C]
4. GGCCGGCAUGGUCCCAGCCUCCUCGCUGGCGCCGGCUGGGCAACAUUCCGAGGGGACCGUCCCCUCGGUAAUGGCGCAUGGGACUCA [A77C C85U]

1. 0.991
2. 0
3. 0.161
4. 0.192
